# Tested on: Paracoccus sp.
# method.description: Anti-biofilm activity against Paracoccus sp. 4M6 assessed as inhibition of bacterial adhesion incubated for 15 hrs at 20 degC by Syto 61 dye based fluorimetric assay
# Type: functional, organism-based
# applied.conditions: Paracoccus sp. (in: a-proteobacteria), 4M6, 15 h
recorded.endpoint: EC50

# query: EC50 of entry COc1ccc(CCn2cc(CCCc3cn(CCc4ccc(OC)c(Br)c4)nn3)nn2)cc1Br
> 200 µM

Fill blank: measured EC50 of the molecule Oc1ccc(CCn2cc(-c3ccc(-c4cn(CCc5ccc(O)c(Br)c5)nn4)cc3)nn2)cc1Br is ____.
59.9 µM

Recorded EC50 of COc1ccc(CCn2cc(CCCCCCc3cn(CCc4ccc(OC)c(Br)c4)nn3)nn2)cc1Br , please.
> 200 µM

Tell me the measured EC50 of CN(C)CCCOc1ccc(CCn2cc(CCCc3cn(CCc4ccc(OCCCN(C)C)c(Br)c4)nn3)nn2)cc1Br , please.
> 200 µM

Dear colleague, I am looking for the recorded EC50 of the following molecule: CN(C)CCOc1ccc(CCn2cc(-c3ccc(-c4cn(CCc5ccc(OCCN(C)C)c(Br)c5)nn4)cc3)nn2)cc1Br
5.1 µM

Tell me the measured EC50 of CN(C)CCOc1ccc(CCn2cc(CCCCc3cn(CCc4ccc(OCCN(C)C)c(Br)c4)nn3)nn2)cc1Br , please.
> 200 µM

---
# lookup: EC50 of CN(C)CCOc1ccc(CCn2cc(CCCc3cn(CCc4ccc(OCCN(C)C)c(Br)c4)nn3)nn2)cc1Br
> 200 µM

Give the measured EC50 of CN(C)CCOc1ccc(CCn2cc(CCCCCCc3cn(CCc4ccc(OCCN(C)C)c(Br)c4)nn3)nn2)cc1Br .
> 200 µM

Please report the recorded EC50 for CN(C)CCCOc1ccc(CCn2cc(-c3ccc(-c4cn(CCc5ccc(OCCCN(C)C)c(Br)c5)nn4)cc3)nn2)cc1Br .
3.5 µM

Give the measured EC50 of COc1ccc(CCn2cc(CCCCc3cn(CCc4ccc(OC)c(Br)c4)nn3)nn2)cc1Br .
> 200 µM

Please look up its EC50: Oc1ccc(CCn2cc(-c3cccc(-c4cn(CCc5ccc(O)c(Br)c5)nn4)c3)nn2)cc1Br
> 200 µM

Any idea what EC50 was measured for Oc1ccc(CCn2cc(CCCc3cn(CCc4ccc(O)c(Br)c4)nn3)nn2)cc1Br ?
> 200 µM

# lookup: EC50 of Oc1ccc(CCn2cc(CNCc3cn(CCc4ccc(O)c(Br)c4)nn3)nn2)cc1Br
88.3 µM

###

# System: Pseudoalteromonas lipolytica
# method.description: Anti-biofilm activity against Pseudoalteromonas lipolytica TC8 assessed as bacterial adhesion at 200 uM incubated for 15 hrs at 20 degC by Syto 61 dye based fluorimetric assay relative to control
# Type: functional
API: label(entry) gives Satisfied if the entry's Activity is strictly smaller than 70%; on equality or larger values it gives Not satisfied.

Determine if COc1ccc(CCn2cc(-c3cccc(-c4cn(CCc5ccc(OC)c(Br)c5)nn4)c3)nn2)cc1Br shows Activity strictly lower than 70%.
Not satisfied

Lab log: compare recorded Activity with 70%; is it strictly lower for Oc1ccc(CCn2cc(CCCCCCc3cn(CCc4ccc(O)c(Br)c4)nn3)nn2)cc1Br ?
Not satisfied

Given CN(C)CCCOc1ccc(CCn2cc(CCCCc3cn(CCc4ccc(OCCCN(C)C)c(Br)c4)nn3)nn2)cc1Br , is recorded Activity strictly lower than 70%?
Not satisfied

# TODO verify Activity < 70% strictly for this molecule: CN(C)CCOc1ccc(CCn2cc(-c3cccc(-c4cn(CCc5ccc(OCCN(C)C)c(Br)c5)nn4)c3)nn2)cc1Br
Satisfied

# strict comparison: is reported Activity < 70%? input = CN(C)CCOc1ccc(CCn2cc(CCCCCCc3cn(CCc4ccc(OCCN(C)C)c(Br)c4)nn3)nn2)cc1Br
Satisfied

More entries:
Is Activity strictly under 70% for the entry Oc1ccc(CCn2cc(COCc3cn(CCc4ccc(O)c(Br)c4)nn3)nn2)cc1Br ?
Satisfied

hey, is Activity for CN(C)CCOc1ccc(CCn2cc(CCCCc3cn(CCc4ccc(OCCN(C)C)c(Br)c4)nn3)nn2)cc1Br lower than 70% or not?
Satisfied

Is 70% strictly greater than the molecule's reported Activity? molecule: Oc1ccc(CCn2cc(-c3cccc(-c4cn(CCc5ccc(O)c(Br)c5)nn4)c3)nn2)cc1Br
Satisfied

Just for reference, ChEMBL document CHEMBL4330109 is where these values come from.
